Measured IC50 (RfaE (Escherichia coli))
Reply with just the number (in µM).

Prompt line: Identify the measured IC50 of COc1ccc(-c2nc(C(=O)N(CC(=O)O)Cc3ccccn3)c(C)o2)cc1 [Example XXI] for RfaE (Escherichia coli).
Response line: 75

Prompt line: Identify the measured IC50 of O=C(O)CN(Cc1ccccn1)C(=O)c1nc(-c2ccccc2)oc1C(F)(F)F [XIII] for RfaE (Escherichia coli).
Response line: 80

Prompt line: Identify the measured IC50 of Cc1oc(-c2cccc(Br)c2)nc1C(=O)N(CC(=O)O)Cc1ccccn1 [XVIII] for RfaE (Escherichia coli).
Response line: 10

====

Measured log10(IC50) (RfaE (Escherichia coli, UniProt P76658))
# values: log10(IC50), units µM

Below, each entry is followed by its recorded log10(IC50) result.
Cc1oc(-c2ccccc2C(F)(F)F)nc1C(=O)N(CC(=O)O)Cc1ccccn1
2.08
Cc1oc(-c2ccccc2)cc1C(=O)N(CC(=O)O)Cc1ccccn1
1.62
Cc1nc(-c2cccc([N+](=O)[O-])c2)sc1C(=O)N(CC(=O)O)Cc1nc2ccccc2s1
-0.30
Cc1nc(-c2ccccc2)oc1C(=O)N(CC(=O)O)Cc1ccc(-c2ccccc2F)o1
2.10
COc1cccc(-c2nc(C)c(C(=O)N(CC(=O)O)Cc3ccccn3)o2)c1
1.23
Cc1oc(-c2ccccc2Br)nc1C(=O)N(CC(=O)O)Cc1ccccn1
1.64
Cc1oc(-c2ccccc2)nc1C(=O)N(CC(=O)O)Cc1ccccn1
1.71
Cc1oc(-c2ccc(O)cc2)nc1C(=O)N(CC(=O)O)Cc1ccccn1
1.59

In the following, a different compound is considered.
Prompt line: Identify the measured log10(IC50) of `Cc1cccc(C)c1-c1nc(C)c(C(=O)N(CC(=O)O)Cc2nc3ccccc3s2)s1` for RfaE (Escherichia coli, UniProt P76658).
Response line: 1.70

====

Target: RfaE (Escherichia coli, UniProt P76658)
Sequence (P76658 whole entry): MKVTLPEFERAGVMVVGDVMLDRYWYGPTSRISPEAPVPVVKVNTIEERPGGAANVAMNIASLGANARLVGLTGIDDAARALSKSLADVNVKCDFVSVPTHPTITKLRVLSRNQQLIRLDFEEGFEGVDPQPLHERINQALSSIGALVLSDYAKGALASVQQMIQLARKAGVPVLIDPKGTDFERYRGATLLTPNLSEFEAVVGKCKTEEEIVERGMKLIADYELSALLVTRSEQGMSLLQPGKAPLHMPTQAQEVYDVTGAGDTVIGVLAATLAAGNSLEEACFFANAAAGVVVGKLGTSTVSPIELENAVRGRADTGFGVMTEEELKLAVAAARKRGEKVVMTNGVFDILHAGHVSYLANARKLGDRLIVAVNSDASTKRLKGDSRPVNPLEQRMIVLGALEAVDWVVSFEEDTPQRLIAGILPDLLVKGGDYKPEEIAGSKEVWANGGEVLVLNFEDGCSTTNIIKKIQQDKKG
parameter measured: pIC50
In textbook form, pIC50 equals minus log to base ten of the concentration in mol/L.

Below, each entry is followed by its recorded pIC50 result.
O=C(O)CN(Cc1ccccn1)C(=O)c1nc(-c2ccccc2)oc1COCc1ccccc1 [I]
3.58
Cc1nc(-c2ccccc2)oc1C(=O)N(CC(=O)O)Cc1ccccn1 [VI]
4.15
O=C(O)CN(Cc1ccccn1)C(=O)c1nc(-c2ccccc2)oc1CN1CCOCC1 [II]
3.71
Cn1nc(-c2ccccc2)cc1C(=O)N(CC(=O)O)Cc1ccccn1 [VIII]
4.24

In the following, a different molecule is considered.
Prompt line: What does the data say about its pIC50? Entry: Cc1oc(-c2cccc(O)c2)nc1C(=O)N(CC(=O)O)Cc1ccccn1 [XXV]
Response line: 4.30
